Values compiled from paper PMC12169609.

Biological target: Sirt2_56–356 (Homo sapiens)
Construct: human strep-tagged Sirt2_56–356 was expressed and purified; strep-tag; made in house
Sequence (Q8IXJ6 56-356): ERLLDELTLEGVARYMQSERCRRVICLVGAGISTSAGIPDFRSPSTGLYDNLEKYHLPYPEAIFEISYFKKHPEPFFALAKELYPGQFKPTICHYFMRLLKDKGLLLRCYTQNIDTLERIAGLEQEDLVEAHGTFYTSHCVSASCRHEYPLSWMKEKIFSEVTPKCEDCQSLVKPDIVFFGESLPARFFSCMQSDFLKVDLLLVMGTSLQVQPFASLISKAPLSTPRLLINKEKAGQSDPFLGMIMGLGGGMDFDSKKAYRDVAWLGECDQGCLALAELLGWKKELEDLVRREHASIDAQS
Assay: Fluorescence polarization assay (FPA), displacement of SirReal-TAMRA probe
Assay type: binding
Conditions: 500 µM compound
// NB: equality with 60% counts as false (0); only FP-Assay Inhibition (%) at 500 µM strictly below is true (1)

(Q) FP-Assay Inhibition (%) at 500 µM under 60%? Item: CC(=O)c1c(O)cccc1OCCC(C)C [No. 22]
(A) false (0)

(Q) FP-Assay Inhibition (%) at 500 µM under 60%? Item: CCOC(=O)c1cccc(-c2nccs2)c1 [No. 21]
(A) false (0)

(Q) FP-Assay Inhibition (%) at 500 µM under 60%? Item: Nc1ccccc1-c1cccs1 [No. 12]
(A) false (0)

(Q) FP-Assay Inhibition (%) at 500 µM under 60%? Item: CNCc1ccc(N2CCOCC2)s1 [No. 13]
(A) true (1)

(Q) FP-Assay Inhibition (%) at 500 µM under 60%? Item: c1ccc2c(CN3CCOCC3)csc2c1 [No. 14]
(A) true (1)
